Recorded IC50 values for a group of molecules are listed next.
- Target Under Test: PI3Kα (Homo sapiens, UniProt P42336)
- Construct: endogenous in cells; host or cells: Jurkat (ATCC TIB-152, clone E6-1) and Ramos (ATCC CRL-1596), 1:1 lysate mix
- Sequence (P42336 whole entry): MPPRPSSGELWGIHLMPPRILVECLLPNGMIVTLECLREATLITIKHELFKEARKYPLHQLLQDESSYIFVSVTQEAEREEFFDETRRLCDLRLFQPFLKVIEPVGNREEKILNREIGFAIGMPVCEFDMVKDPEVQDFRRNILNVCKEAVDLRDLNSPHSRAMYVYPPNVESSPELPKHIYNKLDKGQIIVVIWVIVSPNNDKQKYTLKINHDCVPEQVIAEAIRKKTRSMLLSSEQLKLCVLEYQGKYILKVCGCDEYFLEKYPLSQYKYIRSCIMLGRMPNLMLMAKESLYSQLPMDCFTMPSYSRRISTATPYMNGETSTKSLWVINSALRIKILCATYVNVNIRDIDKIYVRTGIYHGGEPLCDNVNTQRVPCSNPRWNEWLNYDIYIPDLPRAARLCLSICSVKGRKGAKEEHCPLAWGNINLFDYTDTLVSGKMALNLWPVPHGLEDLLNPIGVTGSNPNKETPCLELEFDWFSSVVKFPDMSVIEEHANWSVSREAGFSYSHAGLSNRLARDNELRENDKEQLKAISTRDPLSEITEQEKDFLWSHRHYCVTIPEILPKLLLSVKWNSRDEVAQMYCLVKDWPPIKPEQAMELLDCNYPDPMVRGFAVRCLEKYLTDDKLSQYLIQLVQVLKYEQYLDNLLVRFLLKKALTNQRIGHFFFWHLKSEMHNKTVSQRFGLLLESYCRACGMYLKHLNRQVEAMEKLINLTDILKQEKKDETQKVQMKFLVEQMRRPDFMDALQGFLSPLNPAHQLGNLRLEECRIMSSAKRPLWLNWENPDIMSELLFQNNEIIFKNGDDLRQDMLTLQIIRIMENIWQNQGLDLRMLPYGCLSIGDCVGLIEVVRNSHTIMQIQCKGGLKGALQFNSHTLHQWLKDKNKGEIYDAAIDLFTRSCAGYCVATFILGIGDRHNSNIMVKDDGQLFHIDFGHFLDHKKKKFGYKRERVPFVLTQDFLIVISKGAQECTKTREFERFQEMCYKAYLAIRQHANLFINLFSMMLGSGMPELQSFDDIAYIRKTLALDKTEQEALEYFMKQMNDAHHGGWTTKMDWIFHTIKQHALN
- Sequence (P27986 whole entry partner): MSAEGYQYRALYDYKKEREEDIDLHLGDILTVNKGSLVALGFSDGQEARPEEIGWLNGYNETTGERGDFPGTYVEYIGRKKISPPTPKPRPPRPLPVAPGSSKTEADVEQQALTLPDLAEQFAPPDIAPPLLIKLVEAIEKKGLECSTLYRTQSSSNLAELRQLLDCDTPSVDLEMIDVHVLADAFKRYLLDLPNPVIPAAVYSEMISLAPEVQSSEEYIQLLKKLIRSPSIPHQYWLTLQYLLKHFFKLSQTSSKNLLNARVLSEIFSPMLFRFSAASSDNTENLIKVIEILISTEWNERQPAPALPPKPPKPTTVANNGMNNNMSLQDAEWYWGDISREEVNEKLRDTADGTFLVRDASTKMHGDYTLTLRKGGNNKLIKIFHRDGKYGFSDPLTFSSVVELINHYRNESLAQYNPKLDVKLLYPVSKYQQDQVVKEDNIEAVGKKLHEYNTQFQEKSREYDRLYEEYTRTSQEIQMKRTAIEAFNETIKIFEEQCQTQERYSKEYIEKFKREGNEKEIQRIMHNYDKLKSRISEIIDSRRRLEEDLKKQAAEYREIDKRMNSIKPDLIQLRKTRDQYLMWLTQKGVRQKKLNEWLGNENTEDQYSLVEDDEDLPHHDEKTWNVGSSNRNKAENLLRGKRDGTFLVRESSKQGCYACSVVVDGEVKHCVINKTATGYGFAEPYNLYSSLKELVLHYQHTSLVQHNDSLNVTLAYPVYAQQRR
- Experiment Summary: kinobeads assay, PI3Kα
- Type: binding
- Setup Conditions: 1:1 mix of Jurkat and Ramos cell lysates, read-out: Inhibition values (IC50 in μM) as determined in the kinobeads assay, PI3Kα
Where a name gives a salt, the structure may show the parent alone.

- Molecule: "C[C@H]1COCCN1c1nc2c(c(-c3ccc(NC(=O)NC4CC4)cc3)n1)CNC2"
  IC50: "10 to 100 µM"
- Molecule: "CCNC(=O)Nc1ccc(-c2nc(N3CCOCC3)nc3c2CNC3)cc1"
  IC50: "1 to 10 µM"
- Molecule: "CS(=O)(=O)N1Cc2nc(N3CC4CCC(C3)O4)nc(-c3ccc(NC(=O)NC4CC4)cc3)c2C1"
  IC50: "> 100 µM"
- Molecule: "CCNC(=O)Nc1ccc(-c2nc(N3CCOC[C@@H]3C)nc3c2CN(C=O)C3)cc1"
  IC50: "10 to 100 µM"
- Molecule: "O=C(Nc1ccc(-c2nc(N3CC4CCC(C3)O4)nc3c2CNC3)cc1)NC1CC1"
  IC50: "> 100 µM"
- Molecule: "C[C@H]1COCCN1c1nc2c(c(-c3ccc(NC(=O)NC4CC4)cc3)n1)CN(C(=O)CN)C2"
  IC50: "10 to 100 µM"
- Molecule: "CC(O)CNC(=O)Nc1ccc(-c2nc(N3CCOC[C@@H]3C)nc3c2CN(C(C)C)C3)cc1 (stereo partly drawn)"
  IC50: "10 to 100 µM"
- Molecule: "C[C@H]1COCCN1c1nc2c(c(-c3ccc(NC(=O)NC4CC4)cc3)n1)CN(C(=O)C1CCOC1)C2 (stereo partly drawn) [Example 40, 2,2,2-trifluoroacetate]"
  IC50: "10 to 100 µM"
- Molecule: "CCNC(=O)Nc1ccc(-c2nc(N3CC4CCC(C3)O4)nc3c2CN(C(C)C)C3)cc1 [Example 49, 2,2,2-trifluoroacetate]"
  IC50: "> 100 µM"
- Molecule: "C[C@H]1COCCN1c1nc2c(c(-c3ccc(NC(=O)NCCO)cc3)n1)CNC2"
  IC50: "1 to 10 µM"
- Molecule: "CCNC(=O)Nc1ccc(-c2nc(N3CC4CCC(C3)O4)nc3c2CNC3)cc1 [Example 44, hydrochloride]"
  IC50: "> 100 µM"
- Molecule: "C[C@H]1COCCN1c1nc2c(c(-c3ccc(NC(=O)NC4CC4)cc3)n1)CN(C(=O)CCN(C)C)C2"
  IC50: "> 100 µM"
- Molecule: "C[C@H]1COCCN1c1nc2c(c(-c3ccc(NC(=O)NC4CC4)cc3)n1)CN(C(=O)C1CCCO1)C2 (stereo partly drawn)"
  IC50: "> 100 µM"
- Molecule: "CC(C)CN1Cc2nc(N3CC4CCC(C3)O4)nc(-c3ccc(NC(=O)NCCO)cc3)c2C1 [Example 48, 2,2,2-trifluoroacetate]"
  IC50: "> 100 µM"
- Molecule: "C[C@H]1COCCN1c1nc2c(c(-c3ccc(NC(=O)Nc4ccncc4)cc3)n1)CNC2"
  IC50: "10 to 100 µM"

src = patent US20140163023A1
